Tested on: 616215-338-R-J1-PDC complex spheroid growth, % test/control
experiment notes: Anticancer human tumor 616215-338-R-J1-PDC patient-derived colon adenocarcinoma cell line growth inhibition [Asc]; active = viability on the fitted dose curve at most 10% of control; inactive = the rest
assay conditions: second compound 10 µM; first compound 0.1 µM
Pick from active, inactive when you respond.

Worked set:
- compound: "C=C(F)C(=O)N1CCN(c2nc(OCC3CCCN3C)nc3c2CCN(c2cccc4cccc(Cl)c24)C3)CC1CC#N (stereo unspecified) + Cc1c(S(C)(=O)=O)c(-c2cc(F)cc(N3CCN(c4ccc(NS(=O)(=O)c5ccc(NC(CCN6CCC(C(=O)OCCCP(=O)(O)O)CC6)CSc6ccccc6)c(S(=O)(=O)C(F)(F)F)c5)cc4)CC3)c2)c(-c2ccc(Cl)cc2)n1C(C)C"
  system under test: "616215-338-R-J1-PDC complex spheroid growth, % test/control"
  classification: "inactive"
- compound: "O=C(c1ccc(F)c(F)c1Nc1ccc(I)cc1F)N1CC(O)([C@@H]2CCCCN2)C1 + Cc1c(S(C)(=O)=O)c(-c2cc(F)cc(N3CCN(c4ccc(NS(=O)(=O)c5ccc(NC(CCN6CCC(C(=O)OCCCP(=O)(O)O)CC6)CSc6ccccc6)c(S(=O)(=O)C(F)(F)F)c5)cc4)CC3)c2)c(-c2ccc(Cl)cc2)n1C(C)C"
  system under test: "616215-338-R-J1-PDC complex spheroid growth, % test/control"
  classification: "active"

Problem: Look up the recorded call for CCN1CCN(Cc2ccc(Nc3ncc(F)c(-c4cc(F)c5nc(C)n(C(C)C)c5c4)n3)nc2)CC1 + Cc1c(S(C)(=O)=O)c(-c2cc(F)cc(N3CCN(c4ccc(NS(=O)(=O)c5ccc(NC(CCN6CCC(C(=O)OCCCP(=O)(O)O)CC6)CSc6ccccc6)c(S(=O)(=O)C(F)(F)F)c5)cc4)CC3)c2)c(-c2ccc(Cl)cc2)n1C(C)C in this test.
Solution: inactive

Problem: Entry CNC(C)C(=O)NC1CN(S(=O)(=O)c2cccc(S(=O)(=O)N3CCC4CCC(C(=O)NC(c5ccccc5)c5ccccc5)N4C(=O)C(NC(=O)C(C)NC)C3)c2)CCC2CCC(C(=O)NC(c3ccccc3)c3ccccc3)N2C1=O (stereo unspecified) + Cc1c(S(C)(=O)=O)c(-c2cc(F)cc(N3CCN(c4ccc(NS(=O)(=O)c5ccc(NC(CCN6CCC(C(=O)OCCCP(=O)(O)O)CC6)CSc6ccccc6)c(S(=O)(=O)C(F)(F)F)c5)cc4)CC3)c2)c(-c2ccc(Cl)cc2)n1C(C)C : call = ?
Solution: inactive

Problem: Outcome logged for Cn1ncnc1[C@H]1c2n[nH]c(=O)c3cc(F)cc(c23)N[C@@H]1c1ccc(F)cc1 + Cc1c(S(C)(=O)=O)c(-c2cc(F)cc(N3CCN(c4ccc(NS(=O)(=O)c5ccc(NC(CCN6CCC(C(=O)OCCCP(=O)(O)O)CC6)CSc6ccccc6)c(S(=O)(=O)C(F)(F)F)c5)cc4)CC3)c2)c(-c2ccc(Cl)cc2)n1C(C)C in this assay:
Solution: active

Problem: What was the test verdict on C=CC(=O)N1CCN(c2nc(=O)n(-c3c(C)ccnc3C(C)C)c3nc(-c4c(O)cccc4F)c(F)cc23)C(C)C1 (stereo unspecified) + Cc1c(S(C)(=O)=O)c(-c2cc(F)cc(N3CCN(c4ccc(NS(=O)(=O)c5ccc(NC(CCN6CCC(C(=O)OCCCP(=O)(O)O)CC6)CSc6ccccc6)c(S(=O)(=O)C(F)(F)F)c5)cc4)CC3)c2)c(-c2ccc(Cl)cc2)n1C(C)C ?
Solution: inactive

###

Test system: 616215-338-R-J1-PDC complex spheroid growth, % test/control
experiment notes: Anticancer human tumor 616215-338-R-J1-PDC cell line growth inhibition [Asc];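 also: spheroids exposed to agents for seven days before readout; 100% = DMSO vehicle control viability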
assay conditions: second compound 3 µM; first compound 1 µM; hits give low values
Sorting guide: entries reporting viability, T/C beneath 40% go in the 1 (yes) pile, the rest go in the 0 (no) pile.

- molecule: "COc1c(OCCCN2CCOCC2)ccc2c3n(c(=NC(=O)c4cnc(N)nc4)nc12)CCN3 + CCN1C(C(=O)NC23CCC(C(=O)O)(CC2)CC3)C(c2cccc(Cl)c2F)C2(C(=O)Nc3cc(Cl)ccc32)C12CCCCC2"
  classification: "1 (yes)"
- molecule: "O=C(c1cc(Cc2n[nH]c(=O)c3ccccc23)ccc1F)N1CCN(C(=O)C2CC2)CC1 + CCN1C(C(=O)NC23CCC(C(=O)O)(CC2)CC3)C(c2cccc(Cl)c2F)C2(C(=O)Nc3cc(Cl)ccc32)C12CCCCC2"
  classification: "0 (no)"
- molecule: "CCN1CCN(Cc2ccc(Nc3ncc(F)c(-c4cc(F)c5nc(C)n(C(C)C)c5c4)n3)nc2)CC1 + CCN1C(C(=O)NC23CCC(C(=O)O)(CC2)CC3)C(c2cccc(Cl)c2F)C2(C(=O)Nc3cc(Cl)ccc32)C12CCCCC2"
  classification: "0 (no)"
- molecule: "C#Cc1c(F)ccc2cc(O)cc(-c3ncc4c(N5CC6CCC(C5)N6)nc(OCC56CCCN5CC(F)C6)nc4c3F)c12 (stereo unspecified) + CCN1C(C(=O)NC23CCC(C(=O)O)(CC2)CC3)C(c2cccc(Cl)c2F)C2(C(=O)Nc3cc(Cl)ccc32)C12CCCCC2"
  classification: "1 (yes)"
- molecule: "C=CC(=O)N1CCN(c2nc(=O)n(-c3c(C)ccnc3C(C)C)c3nc(-c4c(O)cccc4F)c(F)cc23)C(C)C1 (stereo unspecified) + CCN1C(C(=O)NC23CCC(C(=O)O)(CC2)CC3)C(c2cccc(Cl)c2F)C2(C(=O)Nc3cc(Cl)ccc32)C12CCCCC2"
  classification: "0 (no)"

Problem: Please determine if C=C(F)C(=O)N1CCN(c2nc(OCC3CCCN3C)nc3c2CCN(c2cccc4cccc(Cl)c24)C3)CC1CC#N (stereo unspecified) + CCN1C(C(=O)NC23CCC(C(=O)O)(CC2)CC3)C(c2cccc(Cl)c2F)C2(C(=O)Nc3cc(Cl)ccc32)C12CCCCC2 is below 40% in terms of viability, T/C.
Solution: 0 (no)

###

Each entry below carries its recorded viability, T/C.
Test system: 616215-338-R-J1-PDC complex spheroid growth, % test/control
experiment notes: Anticancer human tumor 616215-338-R-J1-PDC cell line growth inhibition [Asc];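 also: spheroids exposed to agents for seven days before readout; 100% = DMSO vehicle control viability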
assay conditions: second compound 0.316 µM; first compound 0.3 µM; hits give low values
# unit: % | format: bare number

- compound: "CCN1C(C(=O)NC23CCC(C(=O)O)(CC2)CC3)C(c2cccc(Cl)c2F)C2(C(=O)Nc3cc(Cl)ccc32)C12CCCCC2 (stereo not drawn) + CNC(C)C(=O)NC1CN(S(=O)(=O)c2cccc(S(=O)(=O)N3CCC4CCC(C(=O)NC(c5ccccc5)c5ccccc5)N4C(=O)C(NC(=O)C(C)NC)C3)c2)CCC2CCC(C(=O)NC(c3ccccc3)c3ccccc3)N2C1=O"
  viability, T/C [%]: 41.2
- compound: "Cc1nc(N2CCC3(CC2)COC(C)C3N)c(CO)nc1Sc1ccnc(N)c1Cl (stereo not drawn) + Cc1c(S(C)(=O)=O)c(-c2cc(F)cc(N3CCN(c4ccc(NS(=O)(=O)c5ccc(NC(CCN6CCC(C(=O)OCCCP(=O)(O)O)CC6)CSc6ccccc6)c(S(=O)(=O)C(F)(F)F)c5)cc4)CC3)c2)c(-c2ccc(Cl)cc2)n1C(C)C"
  viability, T/C [%]: 94.9

Next up:
Problem: Please look at this compound and report its viability, T/C: NC(=O)C(=Cn1cnc(-c2cc(C(F)(F)F)cc(C(F)(F)F)c2)n1)c1cncnc1 + Cc1c(S(C)(=O)=O)c(-c2cc(F)cc(N3CCN(c4ccc(NS(=O)(=O)c5ccc(NC(CCN6CCC(C(=O)OCCCP(=O)(O)O)CC6)CSc6ccccc6)c(S(=O)(=O)C(F)(F)F)c5)cc4)CC3)c2)c(-c2ccc(Cl)cc2)n1C(C)C
Solution: 26.7

###

System: 616215-338-R-J1-PDC complex spheroid growth, % test/control
experiment notes: Anticancer human tumor 616215-338-R-J1-PDC cell line growth inhibition [Asc];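 also: spheroids exposed to agents for seven days before readout; 100% = DMSO vehicle control viability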
assay conditions: second compound 1 µM; first compound 10 µM; hits give low values
Parameter viability, T/C: see the listing below.
Return type: number; implicit unit %.

Problem: Please look at this compound and report its viability, T/C: C=C(F)C(=O)N1CCN(c2nc(OCC3CCCN3C)nc3c2CCN(c2cccc4cccc(Cl)c24)C3)CC1CC#N (stereo not drawn) + Cc1c(S(C)(=O)=O)c(-c2cc(F)cc(N3CCN(c4ccc(NS(=O)(=O)c5ccc(NC(CCN6CCC(C(=O)OCCCP(=O)(O)O)CC6)CSc6ccccc6)c(S(=O)(=O)C(F)(F)F)c5)cc4)CC3)c2)c(-c2ccc(Cl)cc2)n1C(C)C
Solution: 0.39

Problem: Provide viability, T/C value for the following compound: C=C(F)C(=O)N1CCN(c2nc(OCC3CCCN3C)nc3c2CCN(c2cccc4cccc(Cl)c24)C3)CC1CC#N (stereo not drawn) + CNC(C)C(=O)NC1CN(S(=O)(=O)c2cccc(S(=O)(=O)N3CCC4CCC(C(=O)NC(c5ccccc5)c5ccccc5)N4C(=O)C(NC(=O)C(C)NC)C3)c2)CCC2CCC(C(=O)NC(c3ccccc3)c3ccccc3)N2C1=O
Solution: 0.21

Problem: Give reported viability, T/C value for C=CC(=O)N1CCN(c2nc(=O)n(-c3c(C)ccnc3C(C)C)c3nc(-c4c(O)cccc4F)c(F)cc23)C(C)C1 (stereo not drawn) + CNC(C)C(=O)NC1CN(S(=O)(=O)c2cccc(S(=O)(=O)N3CCC4CCC(C(=O)NC(c5ccccc5)c5ccccc5)N4C(=O)C(NC(=O)C(C)NC)C3)c2)CCC2CCC(C(=O)NC(c3ccccc3)c3ccccc3)N2C1=O
Solution: 28.9
